test system: Primary T cells; assay: Cytotoxicity, viability by flow cytometry; assay type: cell-based
Reported TD50 by item:

Smiles Repr: COc1ccc(-c2cc(Nc3ccc(OC)c(N)c3)ncn2)cc1
TD50: >10 µM
--
Smiles Repr: COc1ccc(Nc2cc(-c3ccccc3OCc3ccccc3)ncn2)cc1N
TD50: >10 µM
--
Smiles Repr: COC(=O)c1ccc(Nc2cc(-c3ccccc3OC)ncn2)cc1OC
TD50: >10 µM
--
Smiles Repr: COc1ccc(Nc2cc(-c3cccc(F)c3OC)ncn2)cc1N
TD50: 3 µM
--
Smiles Repr: COc1ccc(Nc2cc(-c3ccccc3OC)ncn2)cc1CNc1ccccc1
TD50: >5 µM
--
Smiles Repr: COc1ccc(Nc2cc(-c3ccccc3O)ncn2)cc1N
TD50: >10 µM
--
Smiles Repr: COc1ccc(Nc2cc(-c3cc(F)ccc3OC)ncn2)cc1C(N)=O
TD50: 7 µM
--
Smiles Repr: CCOc1ccc(F)cc1-c1cc(Nc2cc(F)c(OC)c(C(N)=O)c2)ncn1
TD50: >20 µM
